experimental parameters: in n-propanol, 298.15 K
quantity name: solubility (mole fraction)
// response body must contain only the number

Which solubility (mole fraction) is reported for this compound? CC(CCc1ccccc1)NCC(O)c1ccc(O)c(C(N)=O)c1.Cl (stereo unspecified)
0.00071

###

experimental parameters: in ethyl acetate, 288.15 K
quantity name: solubility (mole fraction)
Please give only the number in your answer, with no unit.

For the compound CC(CCc1ccccc1)NCC(O)c1ccc(O)c(C(N)=O)c1.Cl (stereo unspecified) , what solubility (mole fraction) is on record?
0.000116

###

experimental parameters: in n-propanol, 313.15 K
quantity name: solubility (mole fraction)
Write the value as a bare number.

Fill blank: measured solubility (mole fraction) of the compound CC(CCc1ccccc1)NCC(O)c1ccc(O)c(C(N)=O)c1.Cl (stereo unspecified) is ____.
0.00121
